Examples of molecules with documented log10 CC50 follow.
Test system: HT-29
Assay: Cytotoxicity against human HT29 cells after 48 hrs by SRB assay
Format: functional, cell-based
Conditions: Homo sapiens, HT-29, 48 h; read-out: LC50 (the source's name)
test-readout: log10 CC50 (log10 of the value in nM)

molecule	assay-system	log10 CC50
C/C=C1\NC(=O)[C@H](Cc2ccccc2)NC(=O)[C@@H](C(C)C)NC(=O)[C@@H]([C@H](C)CC)NC(=O)[C@H](NC(=O)[C@H](NC(=O)[C@H](CCCN)NC(=O)[C@H]2CCCN2C(=O)[C@H](NC(=O)[C@H](CCCN)NC(=O)[C@@H](NC(=O)[C@H](NC(=O)CCCC(C)C)C(C)C)[C@@H](C)O)C(C)C)[C@H](C)CC)[C@H](C)OC(=O)[C@H](C(C)C)NC1=O	HT-29	3.37
C/C=C1\NC(=O)[C@H](Cc2ccccc2)NC(=O)[C@@H](C(C)C)NC(=O)[C@@H]([C@H](C)CC)NC(=O)[C@H](NC(=O)[C@H](NC(=O)[C@H](CCCNC(=O)CCOCCOCCNC(=O)OCC2c3ccccc3-c3ccccc32)NC(=O)[C@H]2CCCN2C(=O)[C@H](NC(=O)[C@@H](NC(=O)[C@@H](NC(=O)[C@H](NC(=O)CCCC(C)C)C(C)C)[C@@H](C)O)C(C)C)C(C)C)[C@H](C)CC)[C@H](C)OC(=O)[C@H](C(C)C)NC1=O	HT-29	2.42
C/C=C1\NC(=O)[C@H](Cc2ccccc2)NC(=O)[C@@H](C(C)C)NC(=O)[C@@H]([C@H](C)CC)NC(=O)[C@H](NC(=O)[C@H](NC(=O)[C@H](CCCN)NC(=O)[C@H]2CCCN2C(=O)[C@H](NC(=O)CCCC(C)C)C(C)C)[C@H](C)CC)[C@H](C)OC(=O)[C@H](C(C)C)NC1=O	HT-29	3.87
C/C=C1\NC(=O)[C@H](Cc2ccccc2)NC(=O)[C@@H](C(C)C)NC(=O)[C@@H]([C@H](C)CC)NC(=O)[C@H](NC(=O)[C@H](NC(=O)[C@H](CCCN)NC(=O)[C@H]2CCCN2C(=O)[C@H](NC(=O)[C@H](CCC2CCCCC2)NC(=O)[C@@H](NC(=O)[C@@H](CC2CCCCC2)NC(=O)CCCC(C)C)[C@@H](C)O)C(C)C)[C@H](C)CC)[C@H](C)OC(=O)[C@H](C(C)C)NC1=O	HT-29	3.40
C/C=C1\NC(=O)[C@H](Cc2ccc(Cl)c(Cl)c2)NC(=O)[C@@H](C(C)C)NC(=O)[C@@H]([C@H](C)CC)NC(=O)[C@H](NC(=O)[C@H](NC(=O)[C@H](CCCN)NC(=O)[C@H]2CCCN2C(=O)[C@H](NC(=O)[C@@H](NC(=O)[C@@H](NC(=O)[C@H](NC(=O)CC[C@@H](C)CC)C(C)C)[C@@H](C)O)C(C)C)C(C)C)[C@H](C)CC)[C@H](C)OC(=O)[C@H](C(C)C)NC1=O	HT-29	2.30
C/C=C1\NC(=O)[C@H](Cc2ccccc2)NC(=O)[C@@H](C(C)C)NC(=O)[C@@H]([C@H](C)CC)NC(=O)[C@H](NC(=O)[C@H](NC(=O)[C@H](CCCN)NC(=O)[C@H]2CCCN2C(=O)[C@H](NC(=O)[C@@H](NC(=O)[C@@H](NC(=O)[C@@H](CCCN)NC(=O)CCCC(C)C)[C@@H](C)O)C(C)C)C(C)C)[C@H](C)CC)[C@H](C)OC(=O)[C@H](C(C)C)NC1=O	HT-29	3.63
C/C=C1\NC(=O)[C@H](Cc2ccccc2)NC(=O)[C@@H](C(C)C)NC(=O)[C@@H]([C@H](C)CC)NC(=O)[C@H](NC(=O)[C@H](NC(=O)[C@H](CCCN)NC(=O)[C@H]2CCCN2C(=O)[C@H](NC(=O)[C@@H](NC(=O)[C@@H](NC(=O)[C@H](NC(=O)CCCCCCC)C(C)C)[C@@H](C)O)C(C)C)C(C)C)[C@H](C)CC)[C@H](C)OC(=O)[C@H](C(C)C)NC1=O	HT-29	2.96
C/C=C1\NC(=O)[C@H](Cc2ccc(Cl)cc2)NC(=O)[C@@H](C(C)C)NC(=O)[C@@H]([C@H](C)CC)NC(=O)[C@H](NC(=O)[C@H](NC(=O)[C@H](CCCN)NC(=O)[C@H]2CCCN2C(=O)[C@H](NC(=O)[C@@H](NC(=O)[C@@H](NC(=O)[C@H](NC(=O)CCCC(C)C)C(C)C)[C@@H](C)O)C(C)C)C(C)C)[C@H](C)CC)[C@H](C)OC(=O)[C@H](C(C)C)NC1=O	HT-29	2.16
C/C=C1\NC(=O)[C@H](Cc2ccccc2)NC(=O)[C@@H](C(C)C)NC(=O)[C@@H]([C@H](C)CC)NC(=O)[C@H](NC(=O)[C@H](NC(=O)[C@H](CCCN)NC(=O)[C@H]2CCCN2C(=O)[C@H](NC(=O)[C@H](NC(=O)[C@@H](NC(=O)[C@H](NC(=O)CCCC(C)C)C(C)C)[C@@H](C)O)C(C)C)C(C)C)[C@H](C)CC)[C@H](C)OC(=O)[C@H](C(C)C)NC1=O	HT-29	2.95
C/C=C1\NC(=O)[C@H](Cc2ccccc2)NC(=O)[C@@H](C(C)C)NC(=O)[C@@H]([C@H](C)CC)NC(=O)[C@H](NC(=O)[C@H](NC(=O)[C@H](CCCN)NC(=O)[C@H]2CCCN2C(=O)[C@H](NC(=O)[C@@H](NC(=O)[C@@H](NC(=O)[C@H](NC(=O)C2CCC(C)CC2)C(C)C)[C@@H](C)O)C(C)C)C(C)C)[C@H](C)CC)[C@H](C)OC(=O)[C@H](C(C)C)NC1=O (stereo not given in full)	HT-29	2.81

----------
Tested on: A549
Test: Cytotoxicity against human A549 cells after 48 hrs by SRB assay
Format: functional, cell-based
Conditions: Homo sapiens, A549, 48 h
Measured LC50 values are reported for all entries that follow.

smi	LC50
C/C=C1\NC(=O)[C@H](Cc2ccccc2)NC(=O)[C@@H](C(C)C)NC(=O)[C@@H]([C@H](C)CC)NC(=O)[C@H](NC(=O)[C@H](NC(=O)[C@H](CCCN)NC(=O)[C@H]2CCCN2C(=O)[C@H](NC(=O)[C@H](CCC2CCCCC2)NC(=O)[C@@H](NC(=O)[C@H](NC(=O)CCCC(C)C)C(C)C)[C@@H](C)O)C(C)C)[C@H](C)CC)[C@H](C)OC(=O)[C@H](C(C)C)NC1=O	0.437 µM
C/C=C1\NC(=O)[C@H](Cc2cccs2)NC(=O)[C@@H](C(C)C)NC(=O)[C@@H]([C@H](C)CC)NC(=O)[C@H](NC(=O)[C@H](NC(=O)[C@H](CCCN)NC(=O)[C@H]2CCCN2C(=O)[C@H](NC(=O)[C@@H](NC(=O)[C@@H](NC(=O)[C@H](NC(=O)CC[C@@H](C)CC)C(C)C)[C@@H](C)O)C(C)C)C(C)C)[C@H](C)CC)[C@H](C)OC(=O)[C@H](C(C)C)NC1=O	1.21 µM
CC[C@@H](C)[C@@H](NC(=O)[C@H](CCCN)NC(=O)[C@H]1CCCN1C(=O)[C@H](NC(=O)[C@@H](NC(=O)[C@@H](NC(=O)[C@H](NC(=O)CCCC(C)C)C(C)C)[C@@H](C)O)C(C)C)C(C)C)C(=O)N[C@H]1C(=O)N[C@H]([C@H](C)CC)C(=O)N[C@H](C(C)C)C(=O)N[C@@H](Cc2ccccc2)C(=O)NCC(=O)N[C@@H](C(C)C)C(=O)O[C@H]1C	1.46 µM

----------
Tested on: HT-29
Assay: Cytotoxicity against human HT29 cells after 48 hrs by SRB assay
Type: functional, cell-based
Settings: Homo sapiens, HT-29, 48 h; read-out: LC50 (the source's name)

smi	CC50
C/C=C1\NC(=O)[C@@H](Cc2ccccc2)NC(=O)[C@H](C(C)C)NC(=O)[C@H]([C@H](C)CC)NC(=O)[C@@H](NC(=O)[C@@H](NC(=O)[C@@H](CCCN)NC(=O)[C@@H]2CCCN2C(=O)[C@@H](NC(=O)[C@H](NC(=O)[C@H](NC(=O)[C@@H](NC(=O)CCCC(C)C)C(C)C)[C@@H](C)O)C(C)C)C(C)C)[C@H](C)CC)[C@H](C)OC(=O)[C@H](C(C)C)NC1=O	3790 nM
C/C=C1\NC(=O)[C@H](Cc2ccccc2)NC(=O)[C@@H](C(C)C)NC(=O)[C@@H]([C@H](C)CC)NC(=O)[C@H](NC(=O)[C@H](NC(=O)[C@H](CCCNC(=O)CCC2CCCCC2)NC(=O)[C@H]2CCCN2C(=O)[C@H](NC(=O)[C@@H](NC(=O)[C@@H](NC(=O)[C@H](NC(=O)CCCC(C)C)C(C)C)[C@@H](C)O)C(C)C)C(C)C)[C@H](C)CC)[C@H](C)OC(=O)[C@H](C(C)C)NC1=O	130 nM
C/C=C1\NC(=O)[C@H](Cc2ccc([N+](=O)[O-])cc2)NC(=O)[C@@H](C(C)C)NC(=O)[C@@H]([C@H](C)CC)NC(=O)[C@H](NC(=O)[C@H](NC(=O)[C@H](CCCN)NC(=O)[C@H]2CCCN2C(=O)[C@H](NC(=O)[C@@H](NC(=O)[C@@H](NC(=O)[C@H](NC(=O)CC[C@@H](C)CC)C(C)C)[C@@H](C)O)C(C)C)C(C)C)[C@H](C)CC)[C@H](C)OC(=O)[C@H](C(C)C)NC1=O	409 nM
